- System: AGS (Gastric Carcinoma);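 further: after 72 h of two-drug dosing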
- Experiment notes: Bliss excess, mean over the matrix (fraction); higher = more synergy
Please map values of Bliss excess to classes as shown: class 0 = under -0.03, class 1 = from -0.03 up to 0.007, class 2 = 0.007 and over

Challenge: Please let me know in which category the item CC(=O)c1c(C)c2cnc(Nc3ccc(N4CCNCC4)cn3)nc2n(C2CCCC2)c1=O [Palbociclib] + CN(CC[C@H](CSC1=CC=CC=C1)NC2=C(C=C(C=C2)S(=O)(=O)NC(=O)C3=CC=C(C=C3)N4CCC(CC4)[C@H](C5=CC=CC=C5C6=CC=C(C=C6)Cl)O)S(=O)(=O)C(F)(F)F)CCO [AZD4320] (first compound max 10 µM, 7x7, partner max 1 µM) belongs.
Response given: class 1

Challenge: In plain terms, what class is COc1cccc(OCCCN)c1-c1cc(Nc2cnc(C#N)cn2)n[nH]1 [Prexasertib] + CN(C)CCCOc1ccc(-c2ccc3ncc4c(c3c2)n(C2CCOCC2)c(=O)n4C)cn1 [AZD0156] (first compound max 1 µM, 7x7, partner max 1 µM) ?
Response given: class 1

Challenge: Which category does the recorded Bliss excess put C=CCn1c(=O)c2cnc(Nc3ccc(N4CCN(C)CC4)cc3)nc2n1-c1cccc(C(C)(C)O)n1 [AZD1775] + C[C@@H]1COCCN1C2=NC(=NC(=C2)C3(CC3)[S@](=N)(=O)C)C4=C5C=CNC5=NC=C4 [AZD6738] (first compound max 1 µM, partner max 10 µM) in?
Response given: class 2

Challenge: Could you tell me which band Cc1cc2ncnn2cc1Nc1ncc2c(n1)n(C1CCOCC1)c(=O)n2C [AZD7648] + CN(C)CCCOc1ccc(-c2ccc3ncc4c(c3c2)n(C2CCOCC2)c(=O)n4C)cn1 [AZD0156] (first compound max 10 µM, 7x7, partner max 1 µM) belongs to?
Response given: class 2

Challenge: // bin(item) where item = CN(CCO)CC[C@H](CSc1ccccc1)Nc1ccc(S(=O)(=O)NC(=O)c2ccc(N3CCC([C@@H](O)c4ccccc4-c4ccc(Cl)cc4)CC3)cc2)cc1S(=O)(=O)C(F)(F)F [AZD4320] + CN(C)CCCOc1ccc(-c2ccc3ncc4c(c3c2)n(C2CCOCC2)c(=O)n4C)cn1 [AZD0156] (first compound max 1 µM, 7x7, partner max 1 µM)
Response given: class 0

Challenge: Which class holds Cc1cc2ncnn2cc1Nc1ncc2c(n1)n(C1CCOCC1)c(=O)n2C [AZD7648] + C[C@@H]1COCCN1C2=NC(=NC(=C2)C3(CC3)[S@](=N)(=O)C)C4=C5C=CNC5=NC=C4 [AZD6738] (first compound max 10 µM, 7x7, partner max 10 µM) ?
Response given: class 1

Challenge: Class? Entry: NC1(C(=O)N[C@@H](CCO)c2ccc(Cl)cc2)CCN(c2ncnc3[nH]ccc23)CC1 [Capivasertib] + CC(C)n1c(=O)n(C)c2cnc3cc(F)c(-c4ccc(OCCCN5CCCCC5)nc4)cc3c21 [AZD1390] (first compound max 10 µM, 7x7, partner max 0.3 µM)
Response given: class 0

Challenge: Which class does Cc1c2c(nn1C)CSCc1cc(n(C)n1)CSc1cc(c3ccccc3c1)OCCCc1c(C(=O)O)n(C)c3c-2c(Cl)ccc13 [AZD5991] + CN(C)CCCOc1ccc(-c2ccc3ncc4c(c3c2)n(C2CCOCC2)c(=O)n4C)cn1 [AZD0156] (first compound max 1 µM, 7x7, partner max 1 µM) fall in?
Response given: class 1

Challenge: Please report the category associated with Cc1c2c(nn1C)CSCc1cc(n(C)n1)CSc1cc(c3ccccc3c1)OCCCc1c(C(=O)O)n(C)c3c-2c(Cl)ccc13 [AZD5991] + C=CCn1c(=O)c2cnc(Nc3ccc(N4CCN(C)CC4)cc3)nc2n1-c1cccc(C(C)(C)O)n1 [AZD1775] (first compound max 1 µM, partner max 1 µM) , nothing else.
Response given: class 1

Challenge: Exam item: assign Cc1c2c(nn1C)CSCc1cc(n(C)n1)CSc1cc(c3ccccc3c1)OCCCc1c(C(=O)O)n(C)c3c-2c(Cl)ccc13 [AZD5991] + C[C@@H](Nc1cc(F)cc(F)c1)c1cc(C(=O)N(C)C)cc2c(=O)cc(N3CCOCC3)oc12 [AZD8186] (first compound max 1 µM, 7x7, partner max 3 µM) to the correct category.
Response given: class 2

Challenge: Each compound maps to one class by Bliss excess. Which class for Cc1c2c(nn1C)CSCc1cc(n(C)n1)CSc1cc(c3ccccc3c1)OCCCc1c(C(=O)O)n(C)c3c-2c(Cl)ccc13 [AZD5991] + CCN(CCO)CCCOc1ccc2c(Nc3cc(CC(=O)Nc4cccc(F)c4)[nH]n3)ncnc2c1 [AZD2811] (first compound max 1 µM, 7x7, partner max 1 µM) ?
Response given: class 2

Challenge: For C[C@@H](c1ccc2nccn2c1)n1nnc2ncc(-c3cnn(C)c3)nc21 [Savolitinib] + CC1(C)CCC(CN2CCN(c3ccc(C(=O)NS(=O)(=O)c4ccc(NCC5CCOCC5)c([N+](=O)[O-])c4)c(Oc4cnc5[nH]ccc5c4)c3)CC2)=C(c2ccc(Cl)cc2)C1 [Venetoclax] (first compound max 1 µM, 7x7, partner max 1 µM) , which Bliss excess bin applies?
Response given: class 0

Challenge: Exercise: read the entry C=CCn1c(=O)c2cnc(Nc3ccc(N4CCN(C)CC4)cc3)nc2n1-c1cccc(C(C)(C)O)n1 [AZD1775] + C1CN(CCC1(C(=O)N[C@@H](CCO)C2=CC=C(C=C2)Cl)N)C3=NC=NC4=C3C=CN4 [Capivasertib] (first compound max 3 µM, partner max 3 µM) and state which class it falls under.
Response given: class 2
